Below, each of the compounds is paired with its reported cell viability value.
Test system: MOLM1 and UCSD/AML1 (averaged)
assay-protocol: cell viability relative to DMSO control (POC); higher = less growth inhibition
experimental-setup: 1 µM; 72 h
The whole screen tested about 2,100 compounds, of which about 180 (8.6%) showed an effect of 50% or more. Shown is part of a subset that was picked to be rich in strong results.
Number in %, nothing else.

Worked set:
compound | test-system | cell viability, %
CC[C@@H](C(=O)[C@@H](C)[C@@H](O)[C@H](C)[C@@H]1O[C@@H]([C@@H](CC)C(=O)O)CC[C@@H]1C)[C@H]1O[C@]2(C=C[C@@H](O)[C@]3(CC[C@@](C)([C@H]4CC[C@](O)(CC)[C@H](C)O4)O3)O2)[C@H](C)C[C@@H]1C | MOLM1 and UCSD/AML1 (averaged) | 20.9
CC(C)=CCCC1(C)C=Cc2c(O)c3c(c(CC=C(C)C)c2O1)OC12C(CC4CC1C(C)(C)OC2(C/C=C(/C)C(=O)O)C4O)C3=O (stereo unspecified) | MOLM1 and UCSD/AML1 (averaged) | 94.1
C[C@]12CCC(=O)C[C@@H]1CC[C@@H]1[C@@H]2CC[C@]2(C)C(=O)CC[C@@H]12 | MOLM1 and UCSD/AML1 (averaged) | 101
CC(C)CCCC1(C)C=Cc2c(O)c3c(c(CCC(C)C)c2O1)OC12C(CC4CC1C(C)(C)OC2(CCC(C)C(=O)O)C4O)C3=O (stereo unspecified) | MOLM1 and UCSD/AML1 (averaged) | 106
C[C@]12CC[C@H]3[C@@H](CC[C@]4(O)C[C@@H](O)CC[C@]34C=O)[C@@]1(O)CC[C@@H]2C1=CC(=O)OC1 | MOLM1 and UCSD/AML1 (averaged) | 3.15

Now look at this one.
What value of cell viability has been reported for the following compound? O=C(O)CCC1NCC2CC1CN1CCCCC21 (stereo unspecified) 93.6

----------
Test system: MOLM1 and UCSD/AML1 (averaged)
assay-protocol: cell viability relative to DMSO control (POC); higher = less growth inhibition
experimental-setup: 1 µM; 72 h
Out of some 2,100 compounds screened, about 180 (8.6%) showed an effect of 50% or more. This is one part of a sample in which strong results are shown more often than they occur.
reported-metric: cell viability (%)
Number in %, nothing else.

Worked set:
substance-smiles | cell viability [%]
O=C1C=CC(=O)c2ccccc21 | 89.5
COC[C@]12CN(C=O)[C@@H]3[C@@H]4[C@H](OC)[C@H]1[C@@]3([C@@H](OC)C[C@H]2O)[C@@H]1C[C@@]2(O)[C@H](OC(=O)c3ccccc3)[C@@H]1[C@]4(OC(C)=O)[C@@H](O)[C@@H]2OC | 111
Cc1[nH]c2ccccc2c1CN(C)C | 109
C=C(C)c1cc2cc(C(C)=O)c(O)cc2o1 | 104
CC(C)(N)Cc1ccccc1 | 110

Now look at this one.
What value of cell viability has been reported for the following compound? `O=c1c2ccccc2[se]n1-c1ccccc1` 97.5

----------
Test system: MOLM1 and UCSD/AML1 (averaged)
assay-protocol: cell viability relative to DMSO control (POC); higher = less growth inhibition
experimental-setup: 1 µM; 72 h
In all, about 2,100 compounds went through this assay and about 180 (8.6%) showed an effect of 50% or more. This excerpt belongs to a sample that is enriched for strong results.
reported-metric: cell viability (%)
Number in %, nothing else.

Worked set:
compound | uom | cell viability
CC(C)c1ccc2c(c1O)CC[C@H]1C3=C(CC[C@]21C)C(=O)OC3 | % | 89.3
NC(=O)c1ccc(N)nc1 | % | 88
C/C=C/c1ccc2c(c1)OCO2 | % | 108
C[C@]12CC[C@H]3[C@@H](CCC4=CC(=O)CC[C@@]43C)[C@@H]1CC[C@@H]2O | % | 103
CN1C[C@H](C(=O)N[C@]2(C)O[C@@]3(O)[C@@H]4CCCN4C(=O)[C@H](Cc4ccccc4)N3C2=O)C[C@@H]2c3cccc4[nH]cc(c34)C[C@H]21 | % | 112
c1cncc([C@@H]2CCCCN2)c1 | % | 107

What value of cell viability has been reported for the following compound? `S=C=NCc1ccccc1` 95.3

Next up: `C[C@@H]1CC[C@]2(NC1)O[C@H]1C[C@H]3[C@@H]4CC=C5C[C@@H](O)CC[C@]5(C)[C@H]4CC[C@]3(C)[C@H]1[C@@H]2C` 94.1

Next up: CC1(C)N([O-])[N+](=O)C1(C)Br (stereo not given) 109

----------
System: MOLM1 and UCSD/AML1 (averaged)
assay-protocol: cell viability relative to DMSO control (POC); higher = less growth inhibition
experimental-setup: 1 µM; 72 h
Out of some 2,100 compounds screened, about 180 (8.6%) showed an effect of 50% or more. The sample as a whole holds a higher share of strong results than the screen did.
reported-metric: cell viability (%)
Number in %, nothing else.

Worked set:
compound | cell viability [%]
C[N+]12CC[C@@]34c5ccccc5N5C(=O)C[C@@H]6OCC=C(C1)[C@H](C[C@@H]32)[C@@H]6[C@H]54 (some centres undefined) | 102
COc1ccc2c(c1OC)C(=O)O[C@@H]2[C@H]1c2cc3c(cc2CCN1C)OCO3 | 88
CCCCCCCCCCCCCCCC[n+]1ccccc1 | 62.3

Now look at this one.
What value of cell viability has been reported for the following compound? `C[C@H]1O[C@H](O[C@H]2[C@H](O)[C@@H](O)[C@@H](O)[C@H](O)[C@@H]2O)[C@@H](N)C[C@@H]1NC(=N)C(=O)O` 103

----------
Below, each of the molecules is paired with its reported cell viability value.
Test system: MOLM1 and UCSD/AML1 (averaged)
assay-protocol: cell viability relative to DMSO control (POC); higher = less growth inhibition
experimental-setup: 1 µM; 72 h
Screen size: about 2,100 compounds; about 180 (8.6%) showed an effect of 50% or more. For the sample, strong results were picked, then their nearest neighbours and some compounds at random.
Number in %, nothing else.

molecule | uom | cell viability
C[C@@H]1CC[C@@]2(OC1)O[C@H]1[C@@H](O)[C@H]3[C@@H]4CC[C@H]5C[C@@H](O[C@@H]6O[C@H](CO)[C@H](O[C@@H]7O[C@H](CO)[C@@H](O)[C@H](O[C@@H]8OC[C@@H](O)[C@H](O)[C@H]8O)[C@H]7O[C@@H]7O[C@H](CO)[C@H](O)[C@H](O[C@@H]8O[C@H](CO)[C@@H](O)[C@H](O)[C@H]8O)[C@H]7O)[C@H](O)[C@H]6O)[C@H](O)C[C@]5(C)[C@H]4CC[C@]3(C)[C@H]1[C@@H]2C | % | 92.7
CC(=O)O[C@H]1C[C@@H]2CC[C@@H]3[C@H](CC[C@@]4(C)[C@H]3C[C@H]([N+]3(C)CCCCC3)[C@@H]4OC(C)=O)[C@@]2(C)C[C@@H]1[N+]1(C)CCCCC1 | % | 88.6
C[C@]12CCC(=O)C=C1C=C[C@@H]1[C@@H]2CC[C@@]2(C)[C@H]1CC[C@@]2(O)CCC(=O)O | % | 111
CC1=CCCC2C1(C)CCC(C)C2(C)CC/C(C)=C/Cn1c[n+](C)c2c(N)ncnc21 (configuration not stated) [AGELASINE (stereochemistry of diterpene unknown)] | % | 109
CC(=O)O[C@H]1C[C@H](O[C@H]2[C@@H](O)C[C@H](O[C@H]3[C@@H](O)C[C@H](O[C@H]4CC[C@@]5(C)[C@H](CC[C@@H]6[C@@H]5C[C@@H](O)[C@]5(C)[C@@H](C7=CC(=O)OC7)CC[C@]65O)C4)O[C@@H]3C)O[C@@H]2C)O[C@H](C)[C@H]1O[C@@H]1O[C@H](CO)[C@@H](O)[C@H](O)[C@H]1O | % | 3.89
C[C@]12CC[C@H](O)C[C@H]1CC[C@@H]1[C@@H]2CC[C@]2(C)[C@@H](C3=CC(=O)OC3)[C@@H](O)C[C@]12O | % | 99.6

What value of cell viability has been reported for the following molecule? `C[N+]1(C)CCc2cc3c(cc2[C@H]1[C@@H]1OC(=O)c2c1ccc1c2OCO1)OCO3` 104

----------
Tested on: MOLM1 and UCSD/AML1 (averaged)
assay-protocol: cell viability relative to DMSO control (POC); higher = less growth inhibition
experimental-setup: 1 µM; 72 h
About 180 (8.6%) of roughly 2,100 compounds showed an effect of 50% or more. The list comes from a sample in which strong results are over-represented; it also holds close analogues and randomly drawn compounds.
reported-metric: cell viability

compound | cell viability
O=C(NC(=O)c1c(F)cccc1F)Nc1cc(Cl)c(OC(F)(F)C(F)C(F)(F)F)cc1Cl (stereo unspecified) | 93.9%
COc1ccc(C[C@H]2NC[C@H](O)[C@H]2OC(C)=O)cc1 | 3.59%

Please provide the recorded cell viability for CC1(C)C2C[C@@H](O)[C@]3(C)C(CC[C@@]4(C)[C@H](c5ccoc5)OC(=O)[C@H]5O[C@]543)[C@@]2(C)[C@@H](O)C[C@H]1O (stereo partly specified) , tested on MOLM1 and UCSD/AML1 (averaged). 106%

Next up: `O=C(O)Cc1cnc[nH]1` 101%

Next up: `COc1cc2c(cc1O)CCN[C@@H]2C` 112%

Next up: `COC(=O)C1=CCCN(C)C1` 98.5%
